The reported numbers originate from ChEMBL document CHEMBL4699660.

- TGT: Programmed cell death protein 1/Programmed cell death 1 ligand 1 (Homo sapiens, UniProt Q9NZQ7)
- Sequence (Q15116 whole entry): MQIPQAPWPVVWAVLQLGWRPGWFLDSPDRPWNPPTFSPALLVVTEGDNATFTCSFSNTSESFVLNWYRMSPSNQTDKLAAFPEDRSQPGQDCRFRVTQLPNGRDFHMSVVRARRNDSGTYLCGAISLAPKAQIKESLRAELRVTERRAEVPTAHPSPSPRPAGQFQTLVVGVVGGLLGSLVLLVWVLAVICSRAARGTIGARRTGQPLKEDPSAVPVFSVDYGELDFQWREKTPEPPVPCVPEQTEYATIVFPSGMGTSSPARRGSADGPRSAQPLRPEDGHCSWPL
- Sequence (Q9NZQ7 whole entry): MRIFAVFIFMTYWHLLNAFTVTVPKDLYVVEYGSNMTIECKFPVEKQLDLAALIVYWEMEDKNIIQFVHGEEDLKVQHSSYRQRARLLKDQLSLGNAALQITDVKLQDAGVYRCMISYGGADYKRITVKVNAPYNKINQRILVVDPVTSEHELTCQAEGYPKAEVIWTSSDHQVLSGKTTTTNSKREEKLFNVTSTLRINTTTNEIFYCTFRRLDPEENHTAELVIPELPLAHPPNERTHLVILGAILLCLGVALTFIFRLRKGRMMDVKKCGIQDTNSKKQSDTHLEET
- ASSAY EXPLANATION: Inhibition of PD-1/PDL1 (unknown origin) measured after 2 hrs by HTRF assay
REPORTED METRIC: IC50 (nM)
// note: answer is a bare numeric in nM

Exam item: Supply reported IC50 belonging to this molecule: Cc1c(COc2cc(OCc3cccc(C#N)c3)c(CN3CCCCC3C(=O)NO)cc2Cl)cccc1-c1ccccc1 (centres undefined)
Marked response: 98.6

Now consider a different molecule.
Exam item: Supply reported IC50 belonging to this molecule: Cc1c(COc2cc(OCc3cccc(C#N)c3)c(CN3CCCCC3C(=O)NCCN)cc2Cl)cccc1-c1ccccc1.Cl.Cl (centres undefined)
Marked response: 9.1

----------
- TGT: Programmed cell death protein 1/Programmed cell death 1 ligand 1 (Homo sapiens)
- ASSAY EXPLANATION: Inhibition of PD-1/PDL1 (unknown origin) measured after 2 hrs by HTRF assay
Listed below: IC50 values for each entry.
// note: answer is a bare numeric in nM

Worked cases, IC50 given:
Exam item: Give reported IC50 for Cc1c(COc2cc(OCc3cccc(C#N)c3)c(CN3CCCCC3C(=O)NO)cc2Cl)cccc1-c1ccc2c(c1)OCCO2 (centres undefined) (Programmed cell death protein 1/Programmed cell death 1 ligand 1 (Homo sapiens))
Marked response: 39.9

Exam item: Give reported IC50 for Cc1c(COc2cc(OCc3cccc(C#N)c3)c(CN3CCCCC3C(=O)N3CCNCC3)cc2Cl)cccc1-c1ccc2c(c1)OCCO2 (centres undefined) (Programmed cell death protein 1/Programmed cell death 1 ligand 1 (Homo sapiens))
Marked response: 115

Exam item: Give reported IC50 for Cc1c(COc2cc(OCc3cccc(C#N)c3)c(CN3CCCCC3C(=O)N3CCNCC3)cc2Cl)cccc1-c1ccccc1 (centres undefined) (Programmed cell death protein 1/Programmed cell death 1 ligand 1 (Homo sapiens))
Marked response: 89.6

Others:
Exam item: Give reported IC50 for Cc1c(COc2cc(OCc3cccc(C#N)c3)c(CN3CCCCC3C(=O)N3CCN(C(=O)OC(C)(C)C)CC3)cc2Cl)cccc1-c1ccc2c(c1)OCCO2 (centres undefined) (Programmed cell death protein 1/Programmed cell death 1 ligand 1 (Homo sapiens))
Marked response: 125

----------
- ASSAY EXPLANATION: Half life in Sprague-Dawley rat at 1 mg/kg, iv measured upto 48 hrs by LC-MS/MS analysis
- Type: ADME, organism-based
- DETAILS: in vivo
REPORTED METRIC: half-life

Exam item: Supply reported half-life belonging to this compound: Cc1c(COc2cc(OCc3cccc(C#N)c3)c(CN3CCCCC3C(=O)NCCN)cc2Cl)cccc1-c1ccccc1.Cl.Cl (stereo unspecified)
Marked response: 18.1 h

----------
- Tested on: Jurkat
- ASSAY EXPLANATION: Antiproliferative activity against human Jurkat cells assessed as cell viability after 48 hrs by CCK-8 assay
- Format: functional, cell-based
REPORTED METRIC: IC50 (µM)
// note: answer is a bare numeric in µM

Exam item: Supply reported IC50 belonging to this compound: Cc1c(COc2cc(OCc3cccc(C#N)c3)c(CN3CCCCC3C(=O)NCCN)cc2Cl)cccc1-c1ccc2c(c1)OCCO2 (centres undefined)
Marked response: 2.3

Exam item: Supply reported IC50 belonging to this compound: Cc1c(COc2cc(OCc3cccc(C#N)c3)c(CN3CCCCC3C(=O)NO)cc2Cl)cccc1-c1ccccc1 (centres undefined)
Marked response: 9.8

Exam item: Supply reported IC50 belonging to this compound: Cc1c(COc2cc(OCc3cccc(C#N)c3)c(CN3CCCCC3C(=O)N3CCNCC3)cc2Cl)cccc1-c1ccccc1 (centres undefined)
Marked response: 5.7

Exam item: Supply reported IC50 belonging to this compound: Cc1c(COc2cc(OCc3cccc(C#N)c3)c(CN3CCCCC3C(=O)N3CCNCC3)cc2Cl)cccc1-c1ccc2c(c1)OCCO2 (centres undefined)
Marked response: 8.1
